All figures here come from PubChem BioAssay AID1259415.

protocol-notes: qHTS Assay for inhibitors of the human cytomegalovirus (HCMV)
condition-summary: HFF cells, HCMV-luciferase reporter, 72 h; at 57.5 µM; stronger effect = lower value
The whole screen tested about 410,000 compounds, of which about 18,000 (4.4%) were called active. Roughly 7% stayed inconclusive and do not appear here. Many of the other results were omitted from the sample, so actives are more common in it than they were.
Rule: activity change, negative = inhibition below -20% gives true. Equal to or above -20% gives false.

- compound: "O=C(Nc1ccc(Br)cn1)C1CCN(S(=O)(=O)c2cccs2)CC1"
  answer-label: "true"
- compound: "O=C(Nc1ccccc1Cl)N1CCN(c2ccc3nncn3n2)CC1"
  answer-label: "false"
- compound: "COc1cccc(N2CCN(S(=O)(=O)c3cc(Br)cc4c3N(C(=O)C3CC3)CC4)CC2)c1"
  answer-label: "false"
- compound: "CCOC(=O)c1c(C)oc2ccc(N(C(=O)c3ccncc3)S(=O)(=O)c3ccc(CC)cc3)cc12"
  answer-label: "false"
- compound: "COc1cc(OC)c(NC(=O)c2cnc(N3CCCC3)nc2C)cc1Cl"
  answer-label: "false"
- compound: "CCOC(=O)c1cccn1C1C(=O)N(Cc2ccc(OC)cc2)c2c(F)cccc21 (configuration not stated)"
  answer-label: "true"
- compound: "COC(=O)c1c(C)oc2ccc(N(C(=O)Oc3ccccc3)S(=O)(=O)c3ccccc3)cc12"
  answer-label: "true"
- compound: "CCOc1ccc(NC(=O)c2c(NC(=O)Cc3ccccc3)sc3c2CCCCC3)cc1"
  answer-label: "true"
- compound: "Cc1ccc(N(C)C(=O)C2CCN(S(=O)(=O)c3ccc4c(c3)CCCN4C(=O)C3CCC3)CC2)cc1"
  answer-label: "false"
- compound: "Cc1cccc(-n2c(C)cc(/C=N\\NC(=O)c3cccs3)c2C)c1"
  answer-label: "true"
- compound: "CC(C)CC1NC(=O)c2cc(Cl)ccc2-n2c1nc1ccccc1c2=O (configuration not stated)"
  answer-label: "true"
- compound: "OCC1(Cc2ccccc2C(F)(F)F)CCN(Cc2ccncc2)CC1"
  answer-label: "false"
- compound: "O=C(Cc1ccccc1)Nc1sc2c(c1C(=O)Nc1ccc(Br)cc1)CCC2"
  answer-label: "false"
- compound: "CC(C)C[C@H]1CN([C@@H](CC(C)C)CN2CCC[C@@H]2CN2C(=O)C(=O)NC[C@@H]2Cc2ccccc2)C(=O)C(=O)N1CCc1ccccc1"
  answer-label: "true"
- compound: "COc1cc(C2C(C(=O)Nc3ccc(F)cc3)=C(C)Nc3nc(CCCO)nn32)cc(OC)c1OC (configuration not stated)"
  answer-label: "false"
- compound: "O=C(COc1ccc(Cl)cc1)Nc1ccc(-c2nc3cc(Cl)ccc3o2)c(O)c1"
  answer-label: "false"
- compound: "Cc1nc(NC(=O)C2CCCCC2)sc1C"
  answer-label: "false"
- compound: "Cc1cc(C)c(-c2csc(NC(=O)CCCc3nc4ccccc4c(=O)[nH]3)n2)c(C)c1"
  answer-label: "true"
- compound: "O=C(c1cccnc1)N1CCN(S(=O)(=O)c2cccs2)CC1"
  answer-label: "false"
- compound: "CCOc1ccc(NC(=O)c2c(NC(=O)Cc3ccccc3)sc3c2CCC(C)C3)cc1 (configuration not stated)"
  answer-label: "true"
- compound: "CC(C)CNc1ncnc2c1nnn2C"
  answer-label: "true"
- compound: "O=C(C1CCN(S(=O)(=O)c2cccs2)CC1)N1CCCCCC1"
  answer-label: "false"
- compound: "COc1ccc(N2CCN(C(=O)CCSCc3ccccc3F)CC2)cc1"
  answer-label: "false"
- compound: "O=C(CN1c2ccccc2S(=O)(=O)c2ccccc21)Nc1cccc(C(F)(F)F)c1"
  answer-label: "false"
- compound: "Nc1nonc1-n1nnc(C(=O)N/N=C/c2cc(Br)ccc2O)c1CSC1=NCCS1"
  answer-label: "true"
- compound: "COc1ccccc1CCNC(=O)c1cccn1-c1nnc(N2CCCCC2)s1"
  answer-label: "false"
- compound: "O=C(CCC1N=C2c3ccccc3N=C(SCc3ccccc3F)N2C1=O)NCCc1ccccc1 (configuration not stated)"
  answer-label: "true"
- compound: "O=C(Nc1cccc(Cl)c1N1CCOCC1)c1cccnc1"
  answer-label: "true"
- compound: "C[C@H]1CN([C@@H](C)CO)C(=O)CCCn2cc(nn2)CO[C@@H]1CN(C)S(=O)(=O)c1ccccc1C#N"
  answer-label: "false"
- compound: "COc1ccc2nc3n(c(=O)c2c1)-c1ccc(Cl)cc1C(=O)NC3Cc1ccccc1 (configuration not stated)"
  answer-label: "true"
- compound: "CCCCCCNCCn1cnc2c(N)ncnc21"
  answer-label: "true"
- compound: "O=C(NCCc1ccccc1)c1ccc2c(c1)N(Cc1ccccc1)C(=O)c1ccccc1S2(=O)=O"
  answer-label: "false"
- compound: "COc1ccc(NC(=O)C2Cc3c(-c4ccc(Cl)cc4)ccnc3O2)cc1 (configuration not stated)"
  answer-label: "false"
- compound: "CC(=O)c1c(C)oc2ccc(NS(=O)(=O)c3ccccc3)cc12"
  answer-label: "true"
- compound: "O=C(N/N=C/c1sc(N2CCCCC2)nc1-c1cccs1)c1cccnc1"
  answer-label: "true"
- compound: "CCOC(=O)C(O)(c1ccc(NC(=O)c2ccco2)c(OC)c1)C(F)(F)F (configuration not stated)"
  answer-label: "false"
